This section presents binders with their documented Signal/Blank values.
target: T1, Recombinant Human DLL4 (delta-like protein 4) (human, UniProt Q9NR61 27-524); assay: ECL (MSD) multispot binding assay, antigen spotted on plate, Fab in solution;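 also: purified Fab incubated 1 h at 20 °C, detected via TAG-labelled antibody electrochemiluminescence, antigen spot compared with the blank in the same well, ratio at least 4 counted as hit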
T1 construct: Bought recombinant human DLL4 (R&D Systems Cat#1506-D4/CF); also called rHuman DLL4

>>> measured_result("Fab VH1-46_IGHD6-6*01_IGHJ1*01 S102A/S103P/S104F/H111F (APFF) & L6_IGKJ1*01 S30V (Fab, V domains shown, Fab made in E. coli; The constant parts (CH1 with His6 and Flag tags from plasmid A, kappa CL from plasmid C) are not added here; also called APFF & S30V) VH: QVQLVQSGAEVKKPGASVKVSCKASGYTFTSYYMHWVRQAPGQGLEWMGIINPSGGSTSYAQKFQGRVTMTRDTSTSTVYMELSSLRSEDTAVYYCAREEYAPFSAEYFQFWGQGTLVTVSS VL: EIVLTQSPATLSLSPGERATLSCRASQSVVSYLAWYQQKPGQAPRLLIYDASNRATGIPARFSGSGSGTDFTLTISSLEPEDFAVYYCQQRSNWPPWTFGQGTKVEIKR")
497

As a next step, examine the binder that follows.
Exam item: Kindly indicate its recorded Signal/Blank. Item: Fab VH1-46_IGHD6-6*01_IGHJ1*01 S102A/S103P/S104F/H111F (APFF) & L6_IGKJ1*01 S31F (Fab, V domains shown, Fab made in E. coli; The constant parts (CH1 with His6 and Flag tags from plasmid A, kappa CL from plasmid C) are not added here; also called APFF & S31F) VH: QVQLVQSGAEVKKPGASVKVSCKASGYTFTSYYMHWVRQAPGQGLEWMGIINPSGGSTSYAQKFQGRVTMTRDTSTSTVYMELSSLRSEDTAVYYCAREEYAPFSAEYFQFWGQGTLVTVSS VL: EIVLTQSPATLSLSPGERATLSCRASQSVSFYLAWYQQKPGQAPRLLIYDASNRATGIPARFSGSGSGTDFTLTISSLEPEDFAVYYCQQRSNWPPWTFGQGTKVEIKR
Marked response: 459
